Numbers sourced from patent US7189720B2.

# Test target: human Y5 receptor (Homo sapiens, UniProt Q15761)
# Construct: expressed in transfected cells; host or cells: mouse fibroblast LM(tk-) cells, e.g. L-hY5-7 (ATCC CRL-11995)
# Sequence (Q15761 1-445): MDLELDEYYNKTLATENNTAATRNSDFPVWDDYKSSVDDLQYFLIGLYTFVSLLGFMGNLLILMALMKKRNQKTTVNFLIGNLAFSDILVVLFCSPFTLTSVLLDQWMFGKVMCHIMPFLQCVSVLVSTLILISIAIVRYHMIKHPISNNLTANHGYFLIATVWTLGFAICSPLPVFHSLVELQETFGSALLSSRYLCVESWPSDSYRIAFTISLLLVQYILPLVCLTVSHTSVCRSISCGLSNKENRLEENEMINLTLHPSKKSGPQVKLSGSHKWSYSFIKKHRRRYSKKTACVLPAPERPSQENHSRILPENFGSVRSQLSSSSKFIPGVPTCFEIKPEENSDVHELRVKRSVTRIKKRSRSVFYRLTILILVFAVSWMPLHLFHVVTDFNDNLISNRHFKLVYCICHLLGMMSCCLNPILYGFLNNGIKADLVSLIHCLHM
# Method summary: Radioligand binding to membranes, cloned human Y5 receptor
# Test parameters: Table 5; read-out: Ki, nM hNPY-5
Quick list: Ki per entry.
Observed property: Ki (nM)

[
  {
    "Molecule": "COc1ccc(S(=O)(=O)NCCCCCNc2nc(-c3ccccn3)cs2)cc1 [Example 62]",
    "Observed property": "Ki",
    "Value reported": 33
  },
  {
    "Molecule": "O=S(=O)(N[C@H]1CC[C@H](CNc2nc(-c3cccnc3)cs2)CC1)c1ccccc1F [Example 86]",
    "Observed property": "Ki",
    "Value reported": 12.3
  },
  {
    "Molecule": "COc1ccc(C)cc1S(=O)(=O)NC[C@H]1CC[C@H](Nc2nc(-c3nc(C)sc3C)cs2)CC1 [Example 89]",
    "Observed property": "Ki",
    "Value reported": 3.2
  },
  {
    "Molecule": "O=S(=O)(NCCCCCNc1nc(-c2cccnc2)cs1)c1ccccc1F [Example 70]",
    "Observed property": "Ki",
    "Value reported": 21
  },
  {
    "Molecule": "Cc1nc(-c2csc(N[C@H]3CC[C@H](CNS(=O)(=O)N(C)C)CC3)n2)c(C)s1 [Example 98]",
    "Observed property": "Ki",
    "Value reported": 1.5
  },
  {
    "Molecule": "COc1ccc(C)cc1S(=O)(=O)NCCCCCNc1nc(-c2cccnc2)cs1 [Example 72]",
    "Observed property": "Ki",
    "Value reported": 50
  },
  {
    "Molecule": "O=S(=O)(NCCCCCNc1nc(-c2nccs2)cs1)c1ccc(F)cc1 [Example 95]",
    "Observed property": "Ki",
    "Value reported": 179
  },
  {
    "Molecule": "Cc1noc(C)c1S(=O)(=O)NCCCCCNc1nc(-c2cccnc2)cs1 [Example 71]",
    "Observed property": "Ki",
    "Value reported": 37
  },
  {
    "Molecule": "COc1ccc(C)cc1S(=O)(=O)N[C@H]1CC[C@H](CNc2nc(-c3ccncc3)cs2)CC1 [Example 87]",
    "Observed property": "Ki",
    "Value reported": 17
  },
  {
    "Molecule": "COc1ccc(C)cc1S(=O)(=O)NCCCCCNc1nc(-c2ccncc2)cs1 [Example 75]",
    "Observed property": "Ki",
    "Value reported": 5
  },
  {
    "Molecule": "COc1ccc(C)cc1S(=O)(=O)NCCCCCNc1nc(-c2sc3ccc(Cl)cc3c2C)cs1 [Example 77]",
    "Observed property": "Ki",
    "Value reported": 297
  },
  {
    "Molecule": "COc1ccc(C)cc1S(=O)(=O)NCCCCCNc1nc(-c2ccsc2)cs1 [Example 79]",
    "Observed property": "Ki",
    "Value reported": 545
  },
  {
    "Molecule": "O=S(=O)(NC[C@H]1CC[C@H](Nc2nc(-c3cc(-c4ccccc4)no3)cs2)CC1)c1cccc2cccnc12 [Example 81]",
    "Observed property": "Ki",
    "Value reported": 155
  },
  {
    "Molecule": "Cc1noc(C)c1S(=O)(=O)NCCCCCNc1nc(-c2ccncc2)cs1 [Example 74]",
    "Observed property": "Ki",
    "Value reported": 745
  },
  {
    "Molecule": "COc1ccc(C)cc1S(=O)(=O)NCCCCCNc1nc(-c2cc3ccccc3s2)cs1 [Example 76]",
    "Observed property": "Ki",
    "Value reported": 11
  },
  {
    "Molecule": "O=S(=O)(N[C@H]1CC[C@H](CNc2nc(-c3ccccn3)cs2)CC1)c1ccccc1F [Example 84]",
    "Observed property": "Ki",
    "Value reported": 8.4
  },
  {
    "Molecule": "COc1ccc(C)cc1S(=O)(=O)NCCCCCNc1nc(-c2ccn(S(=O)(=O)c3ccccc3)c2)cs1 [Example 80]",
    "Observed property": "Ki",
    "Value reported": 40
  }
]
